Target: S. aureus DNA gyrase (Staphylococcus aureus, UniProt P0A0K8+P20831)
Sequence (P20831 whole entry): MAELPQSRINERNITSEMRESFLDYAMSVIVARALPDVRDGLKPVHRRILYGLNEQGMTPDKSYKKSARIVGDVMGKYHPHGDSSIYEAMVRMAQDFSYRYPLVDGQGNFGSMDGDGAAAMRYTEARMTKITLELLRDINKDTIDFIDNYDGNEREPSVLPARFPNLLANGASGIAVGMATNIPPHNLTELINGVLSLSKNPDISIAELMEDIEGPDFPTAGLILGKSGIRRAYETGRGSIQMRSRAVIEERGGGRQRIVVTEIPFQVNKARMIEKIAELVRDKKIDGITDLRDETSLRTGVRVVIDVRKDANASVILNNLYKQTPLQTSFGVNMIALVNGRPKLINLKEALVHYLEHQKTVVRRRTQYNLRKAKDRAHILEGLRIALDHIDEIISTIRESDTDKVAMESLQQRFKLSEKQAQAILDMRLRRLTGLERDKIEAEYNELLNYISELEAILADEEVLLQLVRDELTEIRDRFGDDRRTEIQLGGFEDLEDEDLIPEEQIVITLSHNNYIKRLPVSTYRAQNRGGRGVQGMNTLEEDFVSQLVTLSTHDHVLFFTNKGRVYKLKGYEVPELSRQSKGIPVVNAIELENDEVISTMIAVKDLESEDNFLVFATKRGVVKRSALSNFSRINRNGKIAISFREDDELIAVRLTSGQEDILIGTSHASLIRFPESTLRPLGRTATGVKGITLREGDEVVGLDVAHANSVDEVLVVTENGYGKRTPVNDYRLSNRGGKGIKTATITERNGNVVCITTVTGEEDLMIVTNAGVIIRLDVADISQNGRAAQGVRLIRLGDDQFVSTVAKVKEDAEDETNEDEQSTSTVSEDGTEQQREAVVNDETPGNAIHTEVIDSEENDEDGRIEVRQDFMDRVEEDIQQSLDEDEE
Sequence (P0A0K8 whole entry): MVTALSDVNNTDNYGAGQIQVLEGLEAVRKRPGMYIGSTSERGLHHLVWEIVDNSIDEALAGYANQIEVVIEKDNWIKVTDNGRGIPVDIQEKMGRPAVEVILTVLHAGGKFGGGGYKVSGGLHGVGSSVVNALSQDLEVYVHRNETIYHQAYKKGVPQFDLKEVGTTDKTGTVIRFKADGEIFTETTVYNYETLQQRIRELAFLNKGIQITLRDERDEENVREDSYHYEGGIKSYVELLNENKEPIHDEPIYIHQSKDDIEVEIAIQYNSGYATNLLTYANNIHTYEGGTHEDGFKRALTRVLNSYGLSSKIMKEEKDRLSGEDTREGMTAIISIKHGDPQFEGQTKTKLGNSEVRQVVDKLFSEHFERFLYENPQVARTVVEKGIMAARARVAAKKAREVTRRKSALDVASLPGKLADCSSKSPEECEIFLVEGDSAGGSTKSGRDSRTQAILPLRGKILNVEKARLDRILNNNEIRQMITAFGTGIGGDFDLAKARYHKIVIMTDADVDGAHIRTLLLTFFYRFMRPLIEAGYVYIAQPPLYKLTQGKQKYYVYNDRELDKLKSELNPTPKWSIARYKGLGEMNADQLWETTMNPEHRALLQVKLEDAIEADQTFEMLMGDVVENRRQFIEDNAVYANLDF
Assay: DNA gyrase supercoiling assay
pIC50: −log10 of the molar value.
MEASURE: pIC50

INSERT INTO results (structure_notation, observed_result) VALUES
  ('O=c1[nH]sc2c(C3CC3)c3cc(N4CC(O)C4)c(F)cn3c(=O)c12', '< 3.70');

Now let's try a different one.
// recorded pIC50 for CCc1c2s[nH]c(=O)c2c(=O)n2ccc(N3CCNCC3)cc12 : < 3.70

* * *

Target: E. coli DNA gyrase (Escherichia coli, UniProt P0AES4+P0AES6)
Sequence (P0AES4 whole entry, one chain of several): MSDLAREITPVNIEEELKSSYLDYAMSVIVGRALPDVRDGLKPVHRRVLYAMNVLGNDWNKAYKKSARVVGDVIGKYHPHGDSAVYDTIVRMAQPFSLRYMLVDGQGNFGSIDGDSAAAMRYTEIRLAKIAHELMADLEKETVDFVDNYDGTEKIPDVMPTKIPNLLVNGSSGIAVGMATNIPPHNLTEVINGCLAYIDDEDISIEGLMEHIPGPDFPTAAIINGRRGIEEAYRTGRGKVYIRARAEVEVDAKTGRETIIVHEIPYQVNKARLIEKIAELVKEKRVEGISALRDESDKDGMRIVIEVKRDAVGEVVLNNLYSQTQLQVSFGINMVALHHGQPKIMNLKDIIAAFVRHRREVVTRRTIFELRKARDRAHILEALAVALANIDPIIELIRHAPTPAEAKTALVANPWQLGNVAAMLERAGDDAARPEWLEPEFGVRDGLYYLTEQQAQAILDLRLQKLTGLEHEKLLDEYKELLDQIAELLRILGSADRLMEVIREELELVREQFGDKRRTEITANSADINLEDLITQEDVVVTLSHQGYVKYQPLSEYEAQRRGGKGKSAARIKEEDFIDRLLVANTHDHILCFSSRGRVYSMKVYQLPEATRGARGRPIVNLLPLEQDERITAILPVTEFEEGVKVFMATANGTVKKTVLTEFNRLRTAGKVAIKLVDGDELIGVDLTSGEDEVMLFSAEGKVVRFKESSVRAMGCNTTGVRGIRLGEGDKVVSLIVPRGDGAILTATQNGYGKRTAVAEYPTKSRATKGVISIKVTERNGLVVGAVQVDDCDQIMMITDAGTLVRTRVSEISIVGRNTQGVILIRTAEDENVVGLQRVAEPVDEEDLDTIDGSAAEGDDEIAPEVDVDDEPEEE
Test: DNA gyrase supercoiling assay
Conditions: read-out: inhibition of E. coli DNA gyrase supercoiling IC50
MEASURE: IC50

INSERT INTO measurements (compound, observed_result) VALUES
  ('CCc1c2s[nH]c(=O)c2c(=O)n2ccc(N3CCNCC3)cc12 [Compound 8]', '< 1000 nM');

Now let's try a different one.
// recorded IC50 for CCc1c2s[nH]c(=O)c2c(=O)n2ccc(N3CCC(N(C)C)C3)cc12 (racemic) [Compound 7] : < 1000 nM

* * *

Biological target: S. aureus topoisomerase IV (Staphylococcus aureus, UniProt P0C1S7+P0C1U9)
Construct: made in house; host or cells: E. coli
Sequence (P0C1U9 whole entry): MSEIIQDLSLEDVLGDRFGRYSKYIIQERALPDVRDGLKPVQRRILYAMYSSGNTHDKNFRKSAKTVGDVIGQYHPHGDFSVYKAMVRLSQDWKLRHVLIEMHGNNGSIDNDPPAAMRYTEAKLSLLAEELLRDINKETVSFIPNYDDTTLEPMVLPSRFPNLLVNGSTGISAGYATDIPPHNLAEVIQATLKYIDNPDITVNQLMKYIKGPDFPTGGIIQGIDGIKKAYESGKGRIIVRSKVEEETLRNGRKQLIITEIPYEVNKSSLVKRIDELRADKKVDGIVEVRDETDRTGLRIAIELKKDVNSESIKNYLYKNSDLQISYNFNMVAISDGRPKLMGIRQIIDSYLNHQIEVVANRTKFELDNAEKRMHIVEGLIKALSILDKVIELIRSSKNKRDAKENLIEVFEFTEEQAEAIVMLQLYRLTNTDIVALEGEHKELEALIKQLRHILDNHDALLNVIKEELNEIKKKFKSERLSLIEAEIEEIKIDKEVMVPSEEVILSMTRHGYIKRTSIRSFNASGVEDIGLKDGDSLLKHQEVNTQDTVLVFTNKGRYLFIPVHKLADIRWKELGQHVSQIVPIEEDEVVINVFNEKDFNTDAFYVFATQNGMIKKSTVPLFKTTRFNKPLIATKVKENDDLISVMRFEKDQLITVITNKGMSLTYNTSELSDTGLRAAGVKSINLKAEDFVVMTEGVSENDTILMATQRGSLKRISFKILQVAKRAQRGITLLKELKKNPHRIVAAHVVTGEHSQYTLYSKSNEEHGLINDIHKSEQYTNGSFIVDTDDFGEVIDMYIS
Sequence (P0C1S7 whole entry): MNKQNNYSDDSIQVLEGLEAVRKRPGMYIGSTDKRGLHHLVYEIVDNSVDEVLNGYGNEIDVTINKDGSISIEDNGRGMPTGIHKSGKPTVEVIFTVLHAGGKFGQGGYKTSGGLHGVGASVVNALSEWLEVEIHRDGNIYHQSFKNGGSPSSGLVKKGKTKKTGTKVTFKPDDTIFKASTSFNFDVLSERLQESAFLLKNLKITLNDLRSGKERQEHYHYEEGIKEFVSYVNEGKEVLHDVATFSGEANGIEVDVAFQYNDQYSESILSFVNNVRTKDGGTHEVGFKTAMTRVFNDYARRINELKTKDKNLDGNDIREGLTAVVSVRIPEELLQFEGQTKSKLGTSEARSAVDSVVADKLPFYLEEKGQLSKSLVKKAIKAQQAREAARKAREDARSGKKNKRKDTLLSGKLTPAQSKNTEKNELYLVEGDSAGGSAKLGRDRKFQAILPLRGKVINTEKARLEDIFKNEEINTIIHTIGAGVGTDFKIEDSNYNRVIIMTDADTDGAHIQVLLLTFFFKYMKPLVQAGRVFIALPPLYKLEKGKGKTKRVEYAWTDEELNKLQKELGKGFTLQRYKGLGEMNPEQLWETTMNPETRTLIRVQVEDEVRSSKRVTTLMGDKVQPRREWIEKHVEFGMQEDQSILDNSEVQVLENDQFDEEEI
Assay: Topoisomerase IV decatenation assay
Format: biochemical
Conditions: read-out: inhibition of S. aureus topoisomerase IV activity IC50
pIC50: −log10 of the molar value.
MEASURE: pIC50

// recorded pIC50 for CCc1c2s[nH]c(=O)c2c(=O)n2ccc(N3CCNCC3)cc12 : > 5.00

* * *

Target: S. aureus topoisomerase IV (Staphylococcus aureus, UniProt P0C1S7+P0C1U9)
Construct: made in house; host or cells: E. coli
Assay: Topoisomerase IV decatenation assay
Assay type: biochemical
MEASURE: IC50

// recorded IC50 for CCc1c2s[nH]c(=O)c2c(=O)n2ccc(N3CCC(N(C)C)C3)cc12 (racemic) : < 10 µM

* * *

Test: Cell viability staining with Alamar Blue (cytotoxicity)
Assay type: cell-based
Details: Chinese hamster, CHO (Chinese hamster ovary) cells, positive control
MEASURE: CC50

// recorded CC50 for CC(C)(C)c1ccc(C(O)CCCN2CCC(C(O)(c3ccccc3)c3ccccc3)CC2)cc1 (stereo not shown) [Terfenadine] : 4.3 to 6.5 µM
